# Test system: Influenza type B (cell culture adapted strain B/Lee/40, ATCC VR-1535)
# assay.method.text: Influenza antiviral assay: inhibition of virus-induced cytopathic effects (CPE) in MDCK cells, XTT dye reduction
# Assay type: cell-based
# setup.conditions: Influenza B virus, MDCK, 96 h, strain B/Lee/40, MDCK cells, CPE inhibition at 4 days

- compound: "O=C1c2c(O)c(=O)ccn2N(C23c4ccccc4CC2Cc2c3ccc(F)c2F)CN1Cc1ccc(F)cc1 (stereo not shown)"
  EC50: "125 to 250 nM"
- compound: "CN1CN(C23C(=Cc4ccccc42)Cc2ccccc23)n2ccc(=O)c(O)c2C1=O (stereo not shown)"
  EC50: "375 to 500 nM"
- compound: "CC(CCN1CN(C23c4ccccc4CC2Cc2c3ccc(F)c2F)n2ccc(=O)c(O)c2C1=O)c1ccccc1 (stereo not shown)"
  EC50: "125 to 250 nM"
- compound: "O=C1c2c(O)c(=O)ccn2N(C23c4ccccc4CC2Cc2cc(F)c(F)cc23)CN1Cc1ccc(F)cc1 (stereo not shown)"
  EC50: "250 to 375 nM"
- compound: "CCN1CN(C23c4ccccc4CC2Cc2ccc(F)cc23)n2ccc(=O)c(O)c2C1=O (stereo not shown)"
  EC50: "< 125 nM"
- compound: "COCCN1CN(C23c4ccccc4CC2Cc2c3ccc(F)c2F)n2ccc(=O)c(O)c2C1=O (stereo not shown)"
  EC50: "< 125 nM"
- compound: "CC1N(C)C(=O)c2c(O)c(=O)ccn2N1C12c3ccccc3CC1Cc1c(Cl)cccc12 (stereo not shown)"
  EC50: "250 to 375 nM"
- compound: "O=C1c2c(O)c(=O)ccn2N(C23c4ccccc4CC2Cc2c3ccc(F)c2F)CN1CCc1ccccc1 (stereo not shown)"
  EC50: "375 to 500 nM"
- compound: "CN1CN(C23c4cccc(F)c4CC2Cc2c(F)cccc23)n2ccc(=O)c(O)c2C1=O (stereo not shown)"
  EC50: "> 500 nM"
- compound: "CCOC12Cc3ccccc3C1(N1CN(CC)C(=O)c3c(O)c(=O)ccn31)c1ccccc1C2 (stereo not shown)"
  EC50: "< 125 nM"
- compound: "COCCN1C(=O)c2c(O)c(=O)ccn2N(C23c4ccccc4CC2Cc2c(Cl)cccc23)C1C (stereo not shown)"
  EC50: "125 to 250 nM"
- compound: "O=C1c2c(O)c(=O)ccn2N(C23c4ccccc4CC2Cc2c(F)cccc23)CN1CC1CCOCC1 (stereo not shown)"
  EC50: "< 125 nM"
- compound: "O=C1c2c(O)c(=O)ccn2N(C23c4ccccc4CC2Cc2cc(F)c(F)cc23)CN1Cc1cccc(F)c1 (stereo not shown)"
  EC50: "375 to 500 nM"
- compound: "CN1CN(C23c4ccccc4CC2Cc2c3ccc(Cl)c2Cl)n2ccc(=O)c(O)c2C1=O (stereo not shown)"
  EC50: "125 to 250 nM"
- compound: "CCN1CN(C23c4ccccc4CC2(C)Cc2ccccc23)n2ccc(=O)c(O)c2C1=O (stereo not shown)"
  EC50: "125 to 250 nM"
- compound: "CCN1CN(C23c4ccccc4CC2Cc2c3ccc(F)c2Cl)n2ccc(=O)c(O)c2C1=O (stereo not shown)"
  EC50: "125 to 250 nM"
- compound: "CCN1CN(C23c4ccccc4CC2Cc2c(Cl)cccc23)n2ccc(=O)c(O)c2C1=O (stereo not shown)"
  EC50: "< 125 nM"
- compound: "O=C1c2c(O)c(=O)ccn2N(C23c4ccccc4CC2Cc2c(Cl)cccc23)CN1CCCF (stereo not shown)"
  EC50: "< 125 nM"
- compound: "CC1N(C)C(=O)c2c(O)c(=O)ccn2N1C12c3cccc(F)c3CC1Cc1c(F)cccc12 (stereo not shown)"
  EC50: "< 125 nM"
- compound: "CN1CN(C23c4ccccc4CC2(C)Cc2cc(F)ccc23)n2ccc(=O)c(O)c2C1=O (stereo not shown)"
  EC50: "< 125 nM"
- compound: "CC1N(C)C(=O)c2c(O)c(=O)ccn2N1C12c3ccccc3CC1Cc1c(F)cccc12 (stereo not shown)"
  EC50: "< 125 nM"
- compound: "O=C1c2c(O)c(=O)ccn2N(C23c4ccccc4CC2Cc2c(F)cccc23)CN1CC(F)F (stereo not shown)"
  EC50: "< 125 nM"
- compound: "O=C1c2c(O)c(=O)ccn2N(C23c4ccccc4CC2Cc2c(Cl)cccc23)CN1CC(F)F (stereo not shown)"
  EC50: "< 125 nM"
- compound: "COCCN1C(=O)c2c(O)c(=O)ccn2N(C23c4ccccc4CC2Cc2c3ccc(F)c2F)C1C (stereo not shown)"
  EC50: "125 to 250 nM"
- compound: "Cc1c(F)ccc2c1CC1Cc3ccccc3C21N1CN(C)C(=O)c2c(O)c(=O)ccn21 (stereo not shown)"
  EC50: "< 125 nM"
- compound: "O=C1c2c(O)c(=O)ccn2N(C23c4ccccc4CC2Cc2c3ccc(F)c2F)CN1CC1CCCC1 (stereo not shown)"
  EC50: "250 to 375 nM"
- compound: "CN1CN(C23c4ccccc4CC2Cc2cc(F)c(F)cc23)n2ccc(=O)c(O)c2C1=O (stereo not shown)"
  EC50: "250 to 375 nM"
- compound: "Cc1cc(CN2CN(C34c5ccccc5CC3Cc3ccccc34)n3ccc(=O)c(O)c3C2=O)no1 (stereo not shown)"
  EC50: "< 125 nM"
- compound: "CC(C)N1CN(C23c4ccccc4CC2(C)Cc2ccccc23)n2ccc(=O)c(O)c2C1=O (stereo not shown)"
  EC50: "< 125 nM"
- compound: "CC(C)CN1CN(C23c4ccccc4CC2Cc2c3ccc(F)c2F)n2ccc(=O)c(O)c2C1=O (stereo not shown)"
  EC50: "< 125 nM"
- compound: "O=C1c2c(O)c(=O)ccn2N(C23c4cccc(F)c4CC2Cc2c(F)cccc23)CN1CCCF (stereo not shown)"
  EC50: "< 125 nM"

###

Each entry below carries its reported pEC50.
# System: Influenza type B (cell culture adapted strain B/Lee/40, ATCC VR-1535)
# assay.method.text: Influenza antiviral assay: inhibition of virus-induced cytopathic effects (CPE) in MDCK cells, XTT dye reduction
# Assay type: cell-based
# setup.conditions: Influenza B virus, MDCK, 96 h, strain B/Lee/40, MDCK cells, CPE inhibition at 4 days
pEC50: −log10 of the molar value.

- compound: "CCN1CN(C23c4ccccc4CC2(OC)Cc2ccccc23)n2ccc(=O)c(O)c2C1=O (stereo not shown)"
  pEC50: "6.60 to 6.90"
- compound: "CC1N(CCF)C(=O)c2c(O)c(=O)ccn2N1C12c3ccccc3CC1Cc1c(Cl)cccc12 (stereo not shown)"
  pEC50: "6.43 to 6.60"
- compound: "O=C1c2c(O)c(=O)ccn2N(C23c4ccccc4CC2Cc2cc(F)c(F)cc23)CN1Cc1ccccc1 (stereo not shown)"
  pEC50: "> 6.90"
- compound: "O=C1c2c(O)c(=O)ccn2N(C23c4ccccc4CC2Cc2c3ccc(F)c2F)CN1C1CCC1 (stereo not shown)"
  pEC50: "6.43 to 6.60"

###

Reported EC50 by item:
# Test system: Influenza type B (cell culture adapted strain B/Lee/40, ATCC VR-1535)
# assay.method.text: Influenza antiviral assay: inhibition of virus-induced cytopathic effects (CPE) in MDCK cells, XTT dye reduction
# Format: cell-based
# setup.conditions: Influenza B virus, MDCK, 96 h, strain B/Lee/40, MDCK cells, CPE inhibition at 4 days
measurement.type: EC50

- molecule: "CC1N(CC2CC2)C(=O)c2c(O)c(=O)ccn2N1C12c3ccccc3CC1Cc1c(F)cccc12 (centres unmarked)"
  measurement.type: "EC50"
  recorded.result: "125 to 250 nM"
- molecule: "CC(C)N1CN(C23c4cccc(F)c4CC2(C)Cc2c(F)cccc23)n2ccc(=O)c(O)c2C1=O (centres unmarked)"
  measurement.type: "EC50"
  recorded.result: "375 to 500 nM"
- molecule: "O=C1c2c(O)c(=O)ccn2N(C23c4ccccc4CC2Cc2c3ccc(F)c2F)CN1CC1CCCCC1 (centres unmarked)"
  measurement.type: "EC50"
  recorded.result: "250 to 375 nM"
- molecule: "COC12Cc3ccccc3C1(N1CN(C)C(=O)c3c(O)c(=O)ccn31)c1ccccc1C2 (centres unmarked)"
  measurement.type: "EC50"
  recorded.result: "< 125 nM"
- molecule: "CCC1N(C)C(=O)c2c(O)c(=O)ccn2N1C12c3ccccc3CC1Cc1ccccc12 (centres unmarked)"
  measurement.type: "EC50"
  recorded.result: "< 125 nM"
- molecule: "CN1CN(C23c4ccccc4CC2Cc2c3ccc(F)c2Cl)n2ccc(=O)c(O)c2C1=O (centres unmarked)"
  measurement.type: "EC50"
  recorded.result: "< 125 nM"
- molecule: "Cc1cccc2c1CC1Cc3c(F)cccc3C21N1CN(C)C(=O)c2c(O)c(=O)ccn21 (centres unmarked)"
  measurement.type: "EC50"
  recorded.result: "< 125 nM"
- molecule: "O=C1c2c(O)c(=O)ccn2N(C23c4ccccc4CC2Cc2cc(F)c(F)cc23)CN1CC1CC1 (centres unmarked)"
  measurement.type: "EC50"
  recorded.result: "< 125 nM"
